Values were extracted from patent US20100227824A1.

# system.under.test: T1, MCP-2 (CCL8) (UniProt P80075 24-99)
# T1 construct: Bought chemokine
# T1 sequence (looked up): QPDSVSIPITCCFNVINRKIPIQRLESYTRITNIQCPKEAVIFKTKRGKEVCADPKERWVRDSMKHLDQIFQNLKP
# assay.details: micro-array, phage-presented peptide on printed CK

binder | Relative Fluorescence Units (RFU)
WVFG [Phage-Presented Peptide 8.4 (Ph-p8.4)] | > 15000 RFU
WVFGHGMCK [Phage-Presented Peptide 25 (Ph-p25)] | > 15000 RFU
WVFGAAACK [Phage-Presented Peptide 8.6 (Ph-p8.6)] | > 15000 RFU
WVFGNAMCK (also called Ph-p28; Ph-p 8) [Phage Presented (Ph) Peptide (p) 8] | > 25000 RFU
TTFFDYDYG [Phage-Presented Peptide 11 (Ph-p11)] | > 600 RFU
